B1: TPR 5TU (parent)
chain: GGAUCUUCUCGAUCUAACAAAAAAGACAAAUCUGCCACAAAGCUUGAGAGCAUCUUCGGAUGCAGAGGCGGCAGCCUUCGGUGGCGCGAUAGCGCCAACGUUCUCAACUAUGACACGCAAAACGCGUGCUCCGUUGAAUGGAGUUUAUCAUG

Variants of: B1
protocol-summary: polymerase ribozyme fitness, log enrichment relative to wild type (log ratio); higher = more active; in vitro selection for triplet polymerase activity
Fewer inactive variants are shown than the library holds.
Each entry below carries its reported polymerase ribozyme fitness (log ratio).

# example entries with known answers
Prompt line: polymerase ribozyme fitness (log ratio) for C14G C87U G141A ?
Response line: -2.56

Prompt line: polymerase ribozyme fitness (log ratio) for U15G C18G G50C U53G G92A U148G ?
Response line: ≤ -4.2

Prompt line: polymerase ribozyme fitness (log ratio) for A3U A17C A89U C132U ?
Response line: -1.09

Prompt line: polymerase ribozyme fitness (log ratio) for A29C G50C C114U ?
Response line: ≤ -4.2

***
Prompt line: polymerase ribozyme fitness (log ratio) for A40G U90G C95A G112C U127C ?
Response line: ≤ -4.2

Prompt line: polymerase ribozyme fitness (log ratio) for C72A G81U G83C C93U ?
Response line: ≤ -4.2

Prompt line: polymerase ribozyme fitness (log ratio) for C43U G50U U55A C76U G136A G152U ?
Response line: ≤ -4.2

Prompt line: polymerase ribozyme fitness (log ratio) for C57U C95U C103G ?
Response line: -1.87

Prompt line: polymerase ribozyme fitness (log ratio) for G42C A49G C54G G83C C85U C96A ?
Response line: ≤ -4.2

Prompt line: polymerase ribozyme fitness (log ratio) for U45A C54A C95A A113G C129A ?
Response line: ≤ -4.2

Prompt line: polymerase ribozyme fitness (log ratio) for C57U C85G A142C A150G ?
Response line: ≤ -4.2

Prompt line: polymerase ribozyme fitness (log ratio) for A16C U44G A47G C51A A60C U77A ?
Response line: ≤ -4.2

Prompt line: polymerase ribozyme fitness (log ratio) for C38U A52G C57U G67U A89U G92A ?
Response line: ≤ -4.2
